Just for reference, PubChem BioAssay (NCATS) is where these values come from.

# tested-on: Single-stranded DNA cytosine deaminase (Homo sapiens)
# measurement-description: Validation qHTS assay for inhibitors of Activation Induced Cytidine Deaminase (AID): AID signal (AID 1347429)
# condition-notes: Recombinant AID, FRET ssDNA deamination with UDG, fluorescence; series mostly up to 115 µM
# Source text: Assay Provider (PI) Patricia Gearhart Ph.D. National Institute on Aging National Institute of Health (NIH), Bethesda, MD Assay Provider (PI) Rahul Kohli Ph.D. Perelman School of Medicine University of Pennsylvania, Philadelphia, PA Activation-Induced Deaminase (AID) is a cytosine deaminase which converts cytosine into uracil within stretches of ssDNA. […] This screen has two signal output, Read 1 evaluates the AID inhibition response. […]
Activity calls are given as the source filed them. Calls follow the shape of the dose curve; as a rule, active = well fitted inhibition curve with a large enough effect; inconclusive = small, poorly fitted or top-dose-only effect; inactive = no such curve, though single readings can be large or run the other way.

compound	tested-on	outcome
COc1cccc(-c2cc(=O)c3ccccc3o2)c1N	Single-stranded DNA cytosine deaminase (Homo sapiens)	inactive
CC(=O)CCCCn1c(=O)c2c(ncn2C)n(C)c1=O	Single-stranded DNA cytosine deaminase (Homo sapiens)	inactive
Clc1ccc(Cn2c(CN3CCCC3)nc3ccccc32)cc1	Single-stranded DNA cytosine deaminase (Homo sapiens)	inactive
CCn1cc(C(=O)O)c(=O)c2ccc(C)nc21	Single-stranded DNA cytosine deaminase (Homo sapiens)	inactive
CCCCC1C(=O)N(c2ccccc2)N(c2ccccc2)C1=O	Single-stranded DNA cytosine deaminase (Homo sapiens)	inactive
CCN(CC)C(=O)c1ccc(O)c(OC)c1	Single-stranded DNA cytosine deaminase (Homo sapiens)	inactive
CN(C)CCC(c1ccccc1)c1ccccn1 (stereo not given)	Single-stranded DNA cytosine deaminase (Homo sapiens)	inactive
O=C1NC(=O)C(c2ccccc2)(c2ccccc2)N1	Single-stranded DNA cytosine deaminase (Homo sapiens)	inactive
O=C(O)CCc1nc(-c2ccccc2)c(-c2ccccc2)o1	Single-stranded DNA cytosine deaminase (Homo sapiens)	inactive
CC1=C(/C=C/C(C)=C/C=C/C(C)=C/C(=O)Nc2ccc(O)cc2)C(C)(C)CCC1	Single-stranded DNA cytosine deaminase (Homo sapiens)	inactive

###

# Test system: WaGa
# measurement-description: qHTS assay to identify novel small-molecules to repurpose for Merkel cell carcinoma treatment (AID 1296009); also: nearly all actives have a fitted effect of over 60% in size; also: potency is read from the fitted curve at half-maximal effect
# condition-notes: MCC and control cell lines, CellTiter-Glo viability, 72 h; series mostly up to 46 µM
Records with an inconclusive call do not appear. Active and inactive are the calls of the source. Calls come from the whole dose curve; as a rule, active = well fitted inhibition curve with a large enough effect; inconclusive = small, poorly fitted or top-dose-only effect; inactive = flat fitted curve, though single readings scatter.

query-smiles	Potency
Cc1c[nH]c(C=C2C(=O)Nc3ccccc32)c1CCC(=O)O	inactive
O=c1c(-c2ccc(O)cc2)coc2cc(O[C@@H]3O[C@H](CO)[C@H](O)[C@H](O)[C@H]3O)ccc12	inactive
O=C(CCN1CCN(C(=O)OCc2cc(Cl)cc(Cl)c2)CC1)c1ccc2[nH]c(=O)oc2c1	inactive
NC(CO)(CO)CCc1ccc(Sc2cccc(OCc3ccccc3)c2)cc1Cl	5.26 µM (active)

###

# measurement-description: Quantitative High-Throughput drug screen in 47 multiple myeloma cell lines against the NCATS MIPE library collection: L363_DSMZ cell viability assay (AID 1918984); also: potency is read from the fitted curve at half-maximal effect; nearly all actives have a fitted effect of over 40% in size
# condition-notes: L363 myeloma viability, CellTiter-Glo ATP luminescence, 48 h; series mostly up to 45.8 µM
Results filed as inconclusive are left out. The source made the active and inactive calls. The call rests on the fitted dose curve; in most records, active means well fitted cell-killing curve with a large enough effect; inconclusive means small, poorly fitted or top-dose-only effect, or effect the other way; inactive means no such curve, though single readings can be large or run the other way.
measured-quantity: Potency

query-smiles	experimental-result
CC[C@@H]1C=C(C)C[C@H](C)C[C@H](OC)[C@H]2O[C@@](O)(C(=O)C(=O)N3CCCC[C@@H]3C(=O)O[C@H](C(C)=C[C@@H]3CC[C@H](Cl)[C@H](OC)C3)[C@H](C)[C@@H](O)CC1=O)[C@H](C)C[C@H]2OC	10.5 µM (active)
C[C@H](NC(=O)C(=O)Nc1ccccc1C(C)(C)C)C(=O)N[C@@H](CC(=O)O)C(=O)COc1c(F)c(F)cc(F)c1F	0.833 µM (active)
COc1cc2ncnc(Nc3ccc(F)c(Cl)c3)c2cc1OCCCN1CCOCC1	8.55 µM (active)
